Tested on: K562
METHOD: NCI tumour cell line growth inhibition, 48 h
Activity calls are given as the source filed them. Cut-off read from the data, not from the text of the source: active = GI50 up to about 1.1 µM and inactive = higher.
Classes used: 1 (active), -1 (inactive)

COMPOUND | CATEGORY_LABEL
COC(=O)C1CC2C=CC=CC(=O)C2(C)C1 (configuration not stated) | -1
C[N+]1(C)C2CC(OC(=O)C(CO)c3ccccc3)CC1C1OC12 (configuration not stated) | -1
CSC1=N/C(=C\c2ccco2)C(=O)N1CN1CCCCC1 | -1
OC(c1cc(C(F)(F)F)nc2c(Cl)cc(Cl)cc12)C1CCCCN1 (configuration not stated) | -1
Cc1ccc(-c2c(N)[n+]([O-])c3ccccc3[n+]2[O-])cc1 | -1
Cc1c2cnccc2c(C)c2c1c1ccccc1n2CCOC(=O)c1ccccc1 | -1
C/C(=N\NC(=O)c1ccccc1O)c1c(O)cc(C)oc1=O | -1
CNC(=S)N/N=C(\C)c1ccc(OC)cc1O | 1
COc1cccc(C=O)c1C(=O)c1cc(O)ccc1O | -1
Cc1ccc(/C=C2\CCCc3ccccc3C2=O)cc1 | -1
COc1cccc2c1OC1Sc3ccccc3-c3nn(-c4ccccc4)c-2c31 (configuration not stated) | -1
Cn1c(CCC2(C)Cc3ccccc3C(=O)O2)cc2ccccc2c1=O (configuration not stated) | -1
